Reported pEC50 values for a set of compounds
Biological target: recombinant human hAAC (human αA-crystallin) (Homo sapiens, UniProt P02489)
Sequence (P02489 whole entry): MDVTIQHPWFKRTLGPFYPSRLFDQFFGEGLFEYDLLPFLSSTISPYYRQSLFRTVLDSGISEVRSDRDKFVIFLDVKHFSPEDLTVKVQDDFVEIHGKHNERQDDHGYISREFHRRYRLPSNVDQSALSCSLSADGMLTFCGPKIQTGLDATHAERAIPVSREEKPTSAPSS
Assay: Protection from Ca+2 and UVC induced aggregation of recombinant human alpha-A crystallin (absorbance / SDS-PAGE)
Format: biochemical
Conditions: concentration needed to prevent 50% of hAAC from forming HMW aggregates when exposed to UVC in presence of Ca+2; calculated using SDS-PAGE; read-out: EC50 Biochemical
pEC50: −log10 of the molar value.
endpoint_name: pEC50

{"mol": "CN/C(=C\\[N+](=O)[O-])NCCSCc1c[nH]c(CN(C)C)n1", "endpoint_name": "pEC50", "reported_measurement": 3.31}
{"mol": "O=C(O)c1ccccc1SSc1ccccc1C(=O)O", "endpoint_name": "pEC50", "reported_measurement": 3.40}
{"mol": "O=C(CSSCC(=O)Nc1cccc([N+](=O)[O-])c1)Nc1cccc([N+](=O)[O-])c1", "endpoint_name": "pEC50", "reported_measurement": 3.44}
{"mol": "CN=C(NC#N)NCCSCc1csc(N=C(C)C)n1", "endpoint_name": "pEC50", "reported_measurement": 3.39}
{"mol": "O=C1NC(=O)c2cc(NC(=O)N3CCSSCC3)ccc21", "endpoint_name": "pEC50", "reported_measurement": 3.43}
{"mol": "O=C(O)c1cc(SSc2ccc([N+](=O)[O-])c(C(=O)O)c2)ccc1[N+](=O)[O-]", "endpoint_name": "pEC50", "reported_measurement": 3.72}

Hey, just so you know, these numbers are from patent US20250019352A1.
